- Subject Of Test: human CD33 S194A (human, UniProt P20138 18-364)
- Sequence (P20138 18-364 S194A limits assumed): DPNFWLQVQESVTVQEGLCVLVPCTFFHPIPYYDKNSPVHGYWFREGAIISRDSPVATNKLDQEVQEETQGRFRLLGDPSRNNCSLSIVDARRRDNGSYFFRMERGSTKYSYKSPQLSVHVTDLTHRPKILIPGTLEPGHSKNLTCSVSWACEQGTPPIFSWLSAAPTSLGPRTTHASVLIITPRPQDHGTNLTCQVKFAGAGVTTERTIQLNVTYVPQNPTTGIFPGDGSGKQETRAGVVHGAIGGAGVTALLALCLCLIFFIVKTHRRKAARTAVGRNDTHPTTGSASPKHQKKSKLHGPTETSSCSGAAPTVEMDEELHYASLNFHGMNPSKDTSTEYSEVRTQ
- Assay Comment: alanine scan, flow cytometry, HEK293-T;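 also: antibody binding to each alanine-substituted CD33 mutant expressed transiently in HEK293-T, read as fluorescence minus background, mean of duplicates, relative to wild-type CD33 set as 100%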
Reported Mean % WT Binding values for a set of binders
Lab book: enter the figure in %, no units written.

Use the examples below as a reference point.
# Binder, Unit Of Measure, Mean % WT Binding
records = [
    ("Refmab #1 (antibody, V domains shown, In the alanine scan antibodies were used as IgG or Fab; also called hP67.6) VH: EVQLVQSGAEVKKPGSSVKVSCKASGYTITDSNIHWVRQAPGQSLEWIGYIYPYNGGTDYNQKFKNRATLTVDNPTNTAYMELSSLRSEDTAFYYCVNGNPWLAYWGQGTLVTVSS VL: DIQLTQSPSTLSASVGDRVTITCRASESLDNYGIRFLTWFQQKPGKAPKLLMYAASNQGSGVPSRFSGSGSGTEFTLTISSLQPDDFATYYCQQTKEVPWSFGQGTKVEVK", "%", 93.7),
    ("Refmab #3 (antibody, V domains shown, In the alanine scan antibodies were used as IgG or Fab) VH: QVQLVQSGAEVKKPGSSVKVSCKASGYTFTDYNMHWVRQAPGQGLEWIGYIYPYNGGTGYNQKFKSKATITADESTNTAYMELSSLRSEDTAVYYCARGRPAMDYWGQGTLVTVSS VL: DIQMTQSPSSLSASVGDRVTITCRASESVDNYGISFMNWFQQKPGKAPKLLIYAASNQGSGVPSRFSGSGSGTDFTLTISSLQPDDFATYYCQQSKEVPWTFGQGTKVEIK", "%", 101),
    ("Refmab #2 (antibody, V domains shown, In the alanine scan antibodies were used as IgG or Fab) VH: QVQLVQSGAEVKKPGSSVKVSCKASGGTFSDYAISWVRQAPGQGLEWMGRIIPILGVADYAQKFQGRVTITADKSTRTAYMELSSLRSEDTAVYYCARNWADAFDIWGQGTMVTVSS VL: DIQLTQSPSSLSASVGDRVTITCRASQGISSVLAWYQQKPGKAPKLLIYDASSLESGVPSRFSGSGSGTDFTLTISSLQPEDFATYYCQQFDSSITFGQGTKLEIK", "%", 112),
]

Need Mean % WT Binding of Refmab #4 (antibody, V domains shown, In the alanine scan antibodies were used as IgG or Fab) VH: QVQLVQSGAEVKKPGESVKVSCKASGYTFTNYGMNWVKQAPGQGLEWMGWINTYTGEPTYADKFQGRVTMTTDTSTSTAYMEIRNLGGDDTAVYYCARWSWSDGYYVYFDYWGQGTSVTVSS VL: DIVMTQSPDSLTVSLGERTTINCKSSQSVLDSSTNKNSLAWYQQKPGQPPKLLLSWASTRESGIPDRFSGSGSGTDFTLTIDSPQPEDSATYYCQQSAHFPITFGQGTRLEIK , thanks.
79
